All values here come from ChEMBL document CHEMBL1811780.

Parameter: GI50. Scope: all listed entries.
tested on: NCI-H460; assay: Antiproliferative activity against human H460 cells after 72 hrs by MTT assay; format: functional; conditions: NCI-H460, 72 h

> print(dat)
                      smiles.representation  experimental.readout  recorded.measurement
1  C1COCCN(CCC23CC4CC(CC(C4)C2)C3)CCOCCOCCN(CCC23CC4CC(CC(C4)C2)C3)CCO1                  GI50                  4 µM
2           c1ccc(CN2CCOCCOCCOCCOCCOCC2)cc1                  GI50              > 100 µM
3                      C1COCCOCCNCCOCCOCCN1                  GI50              > 100 µM
4   C1COCCOCC23CC4CC(C2)CC(COCCOCCO1)(C4)O3                  GI50              > 100 µM

Task item: Give GI50 (NCI-H460) of the following compound: O=C(CCC12CC3CC(CC(C3)C1)C2)N1CCOCCOCCN(C(=O)CCC23CC4CC(CC(C4)C2)C3)CCOCCOCC1
Reply: 11 µM

Task item: Which measured GI50 belongs to C1COCCOCCOCCOCCOCCN1 , tested on NCI-H460?
Reply: > 100 µM
